The reported measurements were obtained from ChEMBL document CHEMBL3259791.

The following compounds are listed with their measured half-life values.
- Experiment Description: Elimination half life in mouse at 40 mg/kg, po after 24 hrs
- Type: ADME, organism-based
- Parameters: dose 40 mg/kg, route oral
- Cond: in vivo, read-out: beta t1/2 (converted)

Smiles Code | half-life, h
COc1cc(OC)c(/C=C/S(=O)(=O)Cc2cnc(OC)c(N)c2)c(OC)c1 | 61.8
COc1cc(OC)c(/C=C/S(=O)(=O)Cc2ccc(OC)c(N)n2)c(OC)c1 | 77.1

###

- Experiment Description: Cmax in mouse at 10 mg/kg, po after 24 hrs
- Format: ADME, organism-based
- Parameters: dose 10 mg/kg, route oral
- Cond: in vivo
Measure Name: Cmax (nM)

Compound | Quantitative Readout
COc1cc(OC)c(/C=C/S(=O)(=O)Cc2cnc(OC)c(NS(C)(=O)=O)c2)c(OC)c1 | 6300
COc1cc(OC)c(/C=C/S(=O)(=O)Cc2ccc(OC)c(NS(C)(=O)=O)n2)c(OC)c1 | 2100
COc1cc(OC)c(/C=C/S(=O)(=O)Cc2ccc(OC)c(NCC(=O)[O-])c2)c(OC)c1.[Na+] [RIGOSERTIB SODIUM] | 400

###

- Tested on: MDA-MB-231
- Experiment Description: Antiproliferative activity against ER negative human MDA-MB-231 cells assessed as cell growth inhibition after 72 hrs by MTT assay
- Type: functional
- Cond: MDA-MB-231, 72 h
Binary call on GI50 with cut-off 60 nM: strictly below means class 1, and equality or higher means class 0.

Smiles Code | Target Entity | Qualitative Label
COc1cc(OC)c(/C=C/S(=O)(=O)Cc2cnc(OC)c(N)c2)c(OC)c1 | MDA-MB-231 | class 1
COc1cc(OC)c(/C=C/S(=O)(=O)Cc2cnc(OC)c(NS(C)(=O)=O)c2)c(OC)c1 | MDA-MB-231 | class 0
COc1cc(OC)c(/C=C/S(=O)(=O)Cc2ccc(OC)c(NCC(=O)O)c2)c(OC)c1 | MDA-MB-231 | class 1
COc1cc(OC)c(/C=C/S(=O)(=O)Cc2ccc(OC)c(NS(C)(=O)=O)n2)c(OC)c1 | MDA-MB-231 | class 0
COc1cc(OC)c(/C=C/S(=O)(=O)Cc2ccc(OC)c(N)n2)c(OC)c1 | MDA-MB-231 | class 1

###

- Experiment Description: AUC (0 to t) in mouse at 40 mg/kg, po after 24 hrs
- Assay type: ADME, organism-based
- Design: time < 24 hr, dose 40 mg/kg, route oral
- Cond: plasma
Measure Name: AUC(0-t) at 24 h (µM·h)

Smiles Code | Quantitative Readout
COc1cc(OC)c(/C=C/S(=O)(=O)Cc2ccc(OC)c(N)n2)c(OC)c1 | 23.1
COc1cc(OC)c(/C=C/S(=O)(=O)Cc2cnc(OC)c(N)c2)c(OC)c1 | 24.6

###

- Experiment Description: Dissociation constant, pKa of the compound by pH-metric method
- Format: physicochemical

Smiles Code | pKa
COc1cc(OC)c(/C=C/S(=O)(=O)Cc2cnc(OC)c(N)c2)c(OC)c1 | 2.39
COc1cc(OC)c(/C=C/S(=O)(=O)Cc2ccc(OC)c(NS(C)(=O)=O)n2)c(OC)c1 | 7.28
COc1cc(OC)c(/C=C/S(=O)(=O)Cc2ccc(OC)c(N)n2)c(OC)c1 | 4.67
COc1cc(OC)c(/C=C/S(=O)(=O)Cc2cnc(OC)c(NS(C)(=O)=O)c2)c(OC)c1 | 7.66
